Target: Vitamin D3 receptor (Homo sapiens) (UniProt P11473)
Sequence (P11473 whole entry, looked up): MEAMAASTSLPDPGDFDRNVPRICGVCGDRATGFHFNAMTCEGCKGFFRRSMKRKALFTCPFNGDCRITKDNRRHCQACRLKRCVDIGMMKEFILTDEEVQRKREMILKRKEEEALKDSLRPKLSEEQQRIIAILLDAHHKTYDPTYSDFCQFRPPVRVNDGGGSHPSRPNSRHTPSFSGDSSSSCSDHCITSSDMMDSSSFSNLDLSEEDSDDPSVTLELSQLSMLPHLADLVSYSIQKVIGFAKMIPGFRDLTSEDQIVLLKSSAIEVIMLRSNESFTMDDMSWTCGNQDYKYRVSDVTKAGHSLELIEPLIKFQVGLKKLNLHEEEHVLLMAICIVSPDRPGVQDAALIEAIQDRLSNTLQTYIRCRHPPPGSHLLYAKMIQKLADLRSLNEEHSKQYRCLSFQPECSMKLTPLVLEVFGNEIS
Experiment: Inhibitors of the vitamin D receptor (VDR): qHTS; further: potency means the concentration at half of the fitted maximal effect
Conditions: VDR-SRC2-3 peptide fluorescence polarization, 2 h
The campaign covered roughly 400,000 compounds. About 3,700 (0.93%) were called active. Inconclusive results (about 3%) are left out. For the sample, actives were picked, then their nearest neighbours and some compounds at random.
For each entry below, report its Potency value.

Consider the reported Potency for these compounds:
compound: CC(C)c1ccc(C2CC(=O)N3CN(C4CCCCC4)CSC3=C2C#N)cc1 (stereo not given)
Potency: 14.1 µM (active)
--
compound: Cc1ccc(C)c(NC(=S)NNC(=S)Nc2ccc(C(C)C)cc2)c1
Potency: 35.5 µM (active)
--
compound: O=c1[nH]c(/C=C\c2cccc(C(F)(F)F)c2)nc(O)c1[N+](=O)[O-]
Potency: 44.7 µM (active)
--
compound: CCS(=O)(=O)c1cc([N+](=O)[O-])c(Sc2ccccc2N)s1
Potency: 28.2 µM (active)
--
compound: Cc1ccc(O)c(NC(=O)CCS(=O)(=O)c2nc(-c3ccc4c(c3)OCO4)cc(C(F)(F)F)n2)c1
Potency: 50.1 µM (active)

Items follow; give Potency for each.
1. CN(C)S(=O)(=O)N1CCC(Oc2cccc(C(=O)NCCCC3CCCC3)c2)CC1
2. O=C1C=CC(=O)N1c1ccc(N2CCCCC2)cc1
3. O=C(NC(=S)Nc1ccccc1C(=O)O)c1ccc(-c2ccc(Br)cc2)o1
4. NC(=O)C1(C(N)=O)OC1c1ccc(Cl)cc1Cl (stereo not given)
5. CC(C)n1cnc2c(NCc3ccccc3)cc(OCC3CCN(C)CC3)cc21

1: 28.2 µM (active); 2: 17.8 µM (active); 3: 70.8 µM (active); 4: 14.1 µM (active); 5: 50.1 µM (active)

====

Molecular target: Vitamin D3 receptor (Homo sapiens) (UniProt P11473)
Assay: Inhibitors of the vitamin D receptor (VDR): qHTS
Details: VDR-SRC2-3 peptide fluorescence polarization, 2 h; stronger effect = lower value
Excerpt: The vitamin D receptor (VDR) is a ligand-activated transcription factor and is partially responsible for the regulation of the endocrine system. […] In a collaboration between the University of Wisconsin, Milwaukee and the NIH Chemical Genomics Center (NCGC) a HTS-compatible enzymatic assay was developed. The assay uses fluorescence polarization as its read-out to measure the inhibition between VDR and coregulator peptide SRC2-3 exerted by small molecules. […]
The whole screen tested about 400,000 compounds, of which about 3,700 (0.93%) were called active. Not shown: some 3% with an inconclusive outcome. Many of the other results were omitted from the sample, so actives are more common in it than they were.
API: label(entry) gives Condition met if the entry's max response, negative = inhibition is strictly smaller than 8%; on equality or larger values it gives Condition not met.

compound: COc1ccc2c(c1)C=C(C(=O)NCc1cc(Br)ccc1OC)CO2
discrete.label: Condition not met
//
compound: CCOc1cccc(CC(=O)N2CCc3c([nH]c4ccccc34)C2c2ccc(F)cc2)c1OCC (stereo not given)
discrete.label: Condition met
//
compound: Cc1ccccc1NC(=O)Cn1cc(C(=O)C2CC2)c2ccccc21
discrete.label: Condition not met

Does this compound meet the criterion max response, negative = inhibition < 8%? `COc1cc(C(=O)NCCS(=O)(=O)N2CCN(c3ccccc3)CC2)cc(OC)c1OC`
Condition not met

Origin of measurements: PubChem BioAssay AID504847
